Data origin: patent US20250186594A1

Quick reference: EC50, HEK-Blue IL18R reporter of the listed items.
- Measurement target: T1, IL-18 receptor (IL-18R) on HEK-Blue IL18R reporter cells (UniProt Q13478 19-541; O95256 20-599, limits assumed)
- T1 sequence (looked up) 1: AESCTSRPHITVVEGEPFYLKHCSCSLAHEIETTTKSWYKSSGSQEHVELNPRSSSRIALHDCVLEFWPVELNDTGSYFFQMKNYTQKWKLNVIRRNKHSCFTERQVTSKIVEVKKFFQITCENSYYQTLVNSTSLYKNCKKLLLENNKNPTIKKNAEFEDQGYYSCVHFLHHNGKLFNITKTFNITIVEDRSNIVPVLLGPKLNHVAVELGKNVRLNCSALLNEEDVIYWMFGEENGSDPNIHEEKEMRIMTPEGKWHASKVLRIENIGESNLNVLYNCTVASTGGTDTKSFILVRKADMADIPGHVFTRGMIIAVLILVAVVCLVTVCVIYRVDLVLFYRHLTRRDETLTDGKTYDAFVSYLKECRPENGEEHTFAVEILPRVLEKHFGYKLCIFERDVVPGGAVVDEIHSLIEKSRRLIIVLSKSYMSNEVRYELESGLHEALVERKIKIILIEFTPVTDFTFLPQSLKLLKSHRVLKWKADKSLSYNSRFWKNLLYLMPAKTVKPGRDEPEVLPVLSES
- T1 sequence (looked up) 2: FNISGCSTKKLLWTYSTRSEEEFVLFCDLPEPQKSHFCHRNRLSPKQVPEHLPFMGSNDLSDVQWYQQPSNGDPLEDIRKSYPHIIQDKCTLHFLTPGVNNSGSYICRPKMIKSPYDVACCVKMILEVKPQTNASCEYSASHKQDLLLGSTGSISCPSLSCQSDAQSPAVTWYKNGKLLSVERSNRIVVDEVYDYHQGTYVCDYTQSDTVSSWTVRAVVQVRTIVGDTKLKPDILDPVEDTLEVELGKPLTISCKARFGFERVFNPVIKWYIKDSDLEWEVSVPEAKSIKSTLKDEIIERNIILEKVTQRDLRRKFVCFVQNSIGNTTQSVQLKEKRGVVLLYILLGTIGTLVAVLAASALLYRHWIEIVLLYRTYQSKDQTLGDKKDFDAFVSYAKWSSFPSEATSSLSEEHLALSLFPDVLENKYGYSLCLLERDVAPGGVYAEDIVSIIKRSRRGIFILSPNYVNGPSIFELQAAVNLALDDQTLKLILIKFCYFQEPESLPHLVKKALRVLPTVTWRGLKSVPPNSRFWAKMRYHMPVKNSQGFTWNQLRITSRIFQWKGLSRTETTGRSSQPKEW
- Protocol details: cell-based or functional assay
Enter your answer as a number in pM; do not include the unit.

// solved cases for EC50, HEK-Blue IL18R reporter follow
[
  {
    "Binder": "IL-18 variant SEQ ID NO: 239 (E6K, V11I, C38A, M51G, K53A, T63A, C76A, C127A) (ligand) YFGKLKSKLSIIRNLNDQVLFIDQGNRPLFEDMTDSDARDNAPRTIFIISGYADSQPRGMAVAISVKCEKISTLSAENKIISFKEMNPPDNIKDTKSDIIFFQRSVPGHDNKMQFESSSYEGYFLAAEKERDLFKLILKKEDELGDRSIMFTVQNED",
    "Unit symbol": "pM",
    "EC50, HEK-Blue IL18R reporter": 100
  },
  {
    "Binder": "IL-18 variant SEQ ID NO: 238 (E6K, V11I, C38A, K53A, T63A, C76A, C127A, V153Y) (ligand) YFGKLKSKLSIIRNLNDQVLFIDQGNRPLFEDMTDSDARDNAPRTIFIISMYADSQPRGMAVAISVKCEKISTLSAENKIISFKEMNPPDNIKDTKSDIIFFQRSVPGHDNKMQFESSSYEGYFLAAEKERDLFKLILKKEDELGDRSIMFTYQNED",
    "Unit symbol": "pM",
    "EC50, HEK-Blue IL18R reporter": 80
  }
]

EC50, HEK-Blue IL18R reporter for IL-18 variant SEQ ID NO: 227 (V11I, C38A, S55T, C76A, C127A) (ligand) YFGKLESKLSIIRNLNDQVLFIDQGNRPLFEDMTDSDARDNAPRTIFIISMYKDTQPRGMAVTISVKCEKISTLSAENKIISFKEMNPPDNIKDTKSDIIFFQRSVPGHDNKMQFESSSYEGYFLAAEKERDLFKLILKKEDELGDRSIMFTVQNED is 4730
